System: SK-OV-3 ovarian
assay summary: NCI-60 one-dose screen, 48 h (100 = growth as untreated, 0 = no growth, -100 = all killed)
details: 10 µM unless noted
About 83,000 compounds went through this panel and 20% of them were active in at least one assay; those are over-represented in the sample as a whole.
Reported growth values for a set of compounds
assay readout: growth (%)

>>> test_result("Cc1nc2scc(-c3ccccc3)n2c(=O)c1CCO")
105
>>> test_result("Cc1ccc(Cn2c(-c3nonc3N)nc3ccccc32)cc1")
80.4
>>> test_result("CCOC(=O)/C=C\\C(=O)NC(N)=O")
95.9
>>> test_result("CCCCCCCCCCCCCCCCC(Br)C(=O)O (configuration not stated)")
118
>>> test_result("CCN1C(=O)N[C@H]2[C@@H]3NC(=O)c4ccc(Cl)n4[C@@H]3C[C@]21O")
28.6
>>> test_result("CS(=O)(=O)N(c1cc(-c2ccc3ncnc(Nc4cccc(Cl)c4)c3c2)cnc1Cl)S(C)(=O)=O")
-11.1
>>> test_result("COc1cccc(/C=C/C(=O)c2sc(Nc3ccc(O)cc3)nc2C)c1")
103
>>> test_result("O=S(=O)(NCCCNc1cc(-c2cn(-c3ccccc3)nc2-c2cccc(O)c2)ccn1)c1ccc(Cl)cc1")
33.1
>>> test_result("COC(=O)c1ccc2nc(-c3cc4ccccc4n3C)n(CCCCOc3cc4c(cc3OC)C(=O)N3CCC[C@H]3C=N4)c2c1")
30.1
>>> test_result("CCCC1OC(c2ccc(C(C)C)cc2)OCC1CC (configuration not stated)")
85.5
>>> test_result("O=C1NCC(c2cc3ccccc3[nH]c2=O)Nc2ccccc21 (configuration not stated)")
89.9
>>> test_result("CC(C)C[C@H](NC(=O)[C@H](Cc1ccccc1)n1ccc(N2CCCCC2)cc1=O)B(O)O")
53.9
>>> test_result("COc1c(NC[C@H]2OC(O)[C@H](O)[C@@H](O)[C@@H]2O)c(=O)c1=O (some centres not stated)")
106
>>> test_result("CSc1ccccc1C#C/C=C\\C#Cc1ccccc1N1CCCC1=O")
85.8
>>> test_result("N#CC1=C(N)OC2=C(C(=O)CCC2)C1c1ccco1 (configuration not stated)")
98.2
>>> test_result("Cc1ccc(-c2csc3nc(C)c(CCCl)c(=O)n23)cc1")
105
>>> test_result("Clc1cccc(Cl)c1Cn1c(-c2cncs2)nc2ccccc21")
96.3
>>> test_result("CC1=NN2C(=NC3=C(CCC/C3=C\\c3ccc(Cl)cc3)C2c2ccc(Cl)cc2)S1 (configuration not stated)")
115
>>> test_result("O=C1Nc2ccc(Br)cc2C1=N/C=c1\\[nH]c(=O)/c(=C/c2ccc(Cl)cc2)s1")
91.4
>>> test_result("CC1=CNNc2c3ncnc-3ncn21")
103
>>> test_result("COc1cc(Cn2c(SCC(=O)Nc3ccc(Cl)cc3)nc3ccccc3c2=O)cc(OC)c1OC")
68.2
>>> test_result("CCCCn1c(=O)c(C2CNC(=O)c3ccccc3N2)cc2ccccc21 (configuration not stated)")
97.2

====

System: NCI-H23 lung
assay summary: NCI-60 one-dose screen, 48 h
details: 10 µM unless noted
About 83,000 compounds went through this panel and 20% of them were active in at least one assay; those are over-represented in the sample as a whole. Activity calls are given as the source filed them. How the source made its calls: active means growth percent below 10; inactive means the rest.
Labels: 1 (yes) (active), 0 (no) (inactive)

>>> category_label("COc1cc(CCn2nnc3c(Nc4ccc(N5CCOCC5)cc4)ncnc32)cc(OC)c1")
"0 (no)"
>>> category_label("CCOC(=O)CC(C#N)(CC(=O)OCC)C(=O)OCC")
"0 (no)"
>>> category_label("CNC(=O)c1cc(Oc2ccc3c(c2)sc2nc(-c4ccc(Cl)cc4)cn23)ccn1")
"0 (no)"
>>> category_label("COc1cc2c(cc1OCCCCn1c(-c3cc(=O)c4ccccc4o3)nc3ccccc31)N=C[C@@H]1CCCN1C2=O")
"0 (no)"
>>> category_label("O=c1[nH]c(CN2CCN(c3ccccc3F)CC2)nc2sc3c(c12)CCC3")
"0 (no)"
>>> category_label("CC1CCN(C(=O)CSc2nc3sc4c(c3c(=O)[nH]2)CCCC4)CC1")
"0 (no)"
>>> category_label("CC/C(=C(\\c1ccc(O)cc1)c1ccc(OCCN(C)CCN(C)C(=O)CCC(=O)c2c(C)[nH]c(/C=C3\\N=C(c4ccc[nH]4)C=C3OC)c2C)cc1)c1ccccc1")
"0 (no)"
>>> category_label("COc1cc(CNC(=O)CSc2nc3ccccc3c(=O)n2Cc2cc(OC)c(OC)c(OC)c2)cc(OC)c1OC")
"0 (no)"
>>> category_label("C#CCC1(c2ccc(F)c(F)c2)NS(=O)(=O)c2ccccc21 (stereo not drawn)")
"0 (no)"
>>> category_label("CN(C)c1nc(N)c(N=O)c(N)n1")
"0 (no)"
>>> category_label("COC1=CC(c2ccc[nH]2)=N/C1=C\\c1[nH]c(C)c(C(=O)CCCCC(=O)NCc2ccccc2)c1C")
"0 (no)"
>>> category_label("Clc1ccc(-c2nc(-c3ccco3)cn3ccnc23)cc1")
"0 (no)"
>>> category_label("COc1cccc(C2CC(=O)Nc3c2c(C)nn3-c2nc3ccccc3[nH]2)c1OC (stereo not drawn)")
"0 (no)"
>>> category_label("O=c1oc2cc(OS(=O)(=O)c3ccc(F)cc3)ccc2c2c1CCCCC2")
"0 (no)"
>>> category_label("CCCS(=O)(=O)c1nc(NC2CC2)cc(-c2ccc3c(ccn3C3CC(C)(C)NC(C)(C)C3)c2)n1")
"0 (no)"
>>> category_label("COc1cccc2nc(Nc3ccc(NC(=O)c4ccc5ncccc5c4)cc3)ccc12")
"0 (no)"
>>> category_label("CCN(C(=O)c1cc2ccccc2[nH]1)[C@H]1CCC[C@@H](NCc2ccc(OC)cc2)C1")
"0 (no)"
>>> category_label("CC[C@H](C)[C@H]1NC(=O)[C@@H](N[C@](C)(O)[C@@H](N)CC(C)C)[C@@H](C)OC(=O)[C@H](Cc2ccc(OC)cc2)N(C)C(=O)[C@@H]2CCCN2C(=O)[C@H](CC(C)C)NC(=O)[C@@H](C)C(=O)[C@H](C(C)C)OC(=O)C[C@@H]1O")
"1 (yes)"
